# measured on: human recombinant Yes [a.a. 2–543 (end)] (Homo sapiens)
# Construct: human recombinant Yes [a.a; 2–543 (end)]; purchased BPS Bioscience 40488
# Sequence (P07947 2-543): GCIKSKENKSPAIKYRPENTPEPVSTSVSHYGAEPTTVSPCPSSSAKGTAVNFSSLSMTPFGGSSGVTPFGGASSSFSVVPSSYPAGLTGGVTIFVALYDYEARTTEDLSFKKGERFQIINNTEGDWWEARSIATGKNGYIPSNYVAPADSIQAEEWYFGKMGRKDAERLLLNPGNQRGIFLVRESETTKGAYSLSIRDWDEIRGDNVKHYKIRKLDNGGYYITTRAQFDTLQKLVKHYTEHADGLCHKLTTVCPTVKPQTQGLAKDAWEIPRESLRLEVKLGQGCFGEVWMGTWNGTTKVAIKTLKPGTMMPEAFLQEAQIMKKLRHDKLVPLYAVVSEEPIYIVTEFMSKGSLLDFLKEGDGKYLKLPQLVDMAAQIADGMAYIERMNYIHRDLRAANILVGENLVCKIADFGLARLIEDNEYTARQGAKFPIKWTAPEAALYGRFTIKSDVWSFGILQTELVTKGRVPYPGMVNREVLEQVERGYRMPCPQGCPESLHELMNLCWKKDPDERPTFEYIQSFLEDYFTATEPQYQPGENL
# procedure details: ADP-Glo kinase assay, inhibition rates of Yes phosphorylation activity (first and second screening)
# Format: biochemical
# assay setup: first screening; mean of n = 4 wells; 10 μmol L−1 compound
reported endpoint: First screening IR (inhibition rate) (%)

[P] O=C(Nc1ccc2[nH]c(=O)[nH]c2c1)c1occc1-c1ccccc1 [Compound Z118811128]
[Q] O=C(NCC1CCCCC1)c1cc(-c2ccccc2)nc2c1cnn2Cc1ccncc1 [Compound Z108748406]
[R] Cc1cccc(NC(=O)C2CCCN(c3nc(CN4CCOCC4)nc4sc(C)c(C)c34)C2)n1 (centres unmarked) [Compound Z573238670]
# input Please rank these compounds by First screening IR (inhibition rate) in descending order. Your reply should list the labels following the order given in the request.
# output P, Q, R
(P: 19%, Q: 8%, R: -5%)

[1] CN1CCN(S(=O)(=O)CCS(C)(=O)=O)CC1 [Compound Z1238645651]
[2] c1ccc(-n2ncc3c2CCNC3)cc1 [Compound Z409420032]
# input From the recorded data, which exceeds the other in First screening IR (inhibition rate): 1 or 2 ? Response format: the label of the selected entry.
# output 1
(1: -2%, 2: -11%)

[A] Cc1cccc(-c2nc(NC(=O)C3Cc4cc(F)ccc4O3)n[nH]2)n1 (centres unmarked) [Compound Z1279679753]
[B] Cc1cccc(NCC2CCN(c3ncnc4c3cnn4C)C2)n1 (centres unmarked) [Compound Z990436502]
# input // compare measured First screening IR (inhibition rate), left A , right B , return larger Return value: the label identifying the chosen record.
# output B
(B: 6%, A: -4%)
